We begin with pKi values for Substance-P receptor (Homo sapiens, UniProt P25103), as collected from the published literature.
// scale note: pKi = -log10(conc_M); give the bare number

COMPOUND: CO/N=C(\COCc1cc(C(F)(F)F)cc(C(F)(F)F)c1)C(CCN1CCN(CC(=O)N2CCC2)CC1)c1ccc(Cl)c(Cl)c1 (stereo unspecified)
pKi: 7.64
//
COMPOUND: COc1ccc(-n2nnnc2-c2ccccc2)cc1CN[C@H]1CCCN[C@H]1c1ccccc1.Cl.Cl
pKi: 9.40
//
COMPOUND: Cc1ccccc1-c1cc(N2CCN(C)CC2)ccc1C(=O)N(C)Cc1cc(C(F)(F)F)cc(C(F)(F)F)c1
pKi: 8.85
//
COMPOUND: CCN(CC)c1nnnn1-c1ccc(OC)c(CN[C@H]2CCCN[C@H]2c2ccccc2)c1
pKi: 8.70
//
COMPOUND: COc1ccc(-c2nccn2C)cc1CN[C@H]1CCCN[C@H]1c1ccccc1
pKi: 8.70
//
COMPOUND: Cc1cc(F)ccc1[C@H]1C[C@@H](N(C)C)CCN1C(=O)N(C)Cc1cc(C(F)(F)F)cc(C(F)(F)F)c1
pKi: 10.10

Query string: Requested read-out pKi, target or system Substance-P receptor (Homo sapiens, UniProt P25103), entry CO/N=C(\COCc1cc(C(F)(F)F)cc(C(F)(F)F)c1)C(CCN1CCN(CC(=O)N2CCCC2)CC1)c1ccc(Cl)c(Cl)c1 (stereo unspecified)
Result string: 7.85

Query string: Requested read-out pKi, target or system Substance-P receptor (Homo sapiens, UniProt P25103), entry CO/N=C(\CN(C)C(=O)c1cc(OC)cc(OC)c1)C(CCN1CCC(O)(c2ccccc2)CC1)c1ccc(Cl)c(Cl)c1 (stereo unspecified)
Result string: 8.30

Query string: Requested read-out pKi, target or system Substance-P receptor (Homo sapiens, UniProt P25103), entry Cc1cc(F)ccc1[C@H]1C[C@H](N(C)C)CCN1C(=O)N(C)[C@H](C)c1cc(C(F)(F)F)cc(C(F)(F)F)c1
Result string: 9.03

Query string: Requested read-out pKi, target or system Substance-P receptor (Homo sapiens, UniProt P25103), entry CO/N=C(\CN(C)C(=O)c1cc(C)nc(-c2cccs2)c1)C(CCN1CCC(O)(c2ccccc2)CC1)c1ccc(Cl)c(Cl)c1 (stereo unspecified)
Result string: 8.70

Query string: Requested read-out pKi, target or system Substance-P receptor (Homo sapiens, UniProt P25103), entry CN(Cc1ccccc1)C(=O)[C@H](Cc1ccccc1)NC(=O)[C@@H]1CCCN1/C(S)=N/Cc1c(Cl)cccc1Cl
Result string: 7.59

---

We begin with Ki values for Substance-P receptor (Homo sapiens), as collected from the published literature.
Consider the reported Ki of an entry and match it to a band in b0: < 7 nM; b1: ≥ 7 nM and < 40 nM; b2: ≥ 40 nM

Below are worked cases with known answers.
MOLECULE: CO/N=C(\COCc1cc(C(F)(F)F)cc(C(F)(F)F)c1)C(CCN1CCC(N2CCCC2)CC1)c1ccc(Cl)c(Cl)c1 (stereo not given)
GROUP LABEL: b1

MOLECULE: CO/N=C(\COCc1cc(C(F)(F)F)cc(C(F)(F)F)c1)C(CCN1CCC(N2CCCCC2CO)CC1)c1ccc(Cl)c(Cl)c1 (stereo not given)
GROUP LABEL: b1

MOLECULE: COc1ccccc1C(COCc1cc(C(F)(F)F)cc(C(F)(F)F)c1)N1CCNCC1 (stereo not given)
GROUP LABEL: b0

For the next question, use this molecule.
Query string: Please indicate the class for CO/N=C(\CCc1cc(C(F)(F)F)cc(C(F)(F)F)c1)C(CCN1CCC(O)(c2ccccc2)CC1)c1ccc(Cl)c(Cl)c1 (stereo not given) based on its Ki.
Result string: b1

---

We begin with Ki values for Substance-P receptor (Homo sapiens), as collected from the published literature.
Kindly provide the numeric value in nM only, without the unit symbol.

Examples with answers:
COMPOUND: CO/N=C(\COCc1cc(C(F)(F)F)cc(C(F)(F)F)c1)C(CCN1CCC(CN2CCCC2=O)CC1)c1ccc(Cl)c(Cl)c1 (stereo unspecified)
TARGET OF ASSAY: Substance-P receptor (Homo sapiens)
Sequence (P25103 whole entry): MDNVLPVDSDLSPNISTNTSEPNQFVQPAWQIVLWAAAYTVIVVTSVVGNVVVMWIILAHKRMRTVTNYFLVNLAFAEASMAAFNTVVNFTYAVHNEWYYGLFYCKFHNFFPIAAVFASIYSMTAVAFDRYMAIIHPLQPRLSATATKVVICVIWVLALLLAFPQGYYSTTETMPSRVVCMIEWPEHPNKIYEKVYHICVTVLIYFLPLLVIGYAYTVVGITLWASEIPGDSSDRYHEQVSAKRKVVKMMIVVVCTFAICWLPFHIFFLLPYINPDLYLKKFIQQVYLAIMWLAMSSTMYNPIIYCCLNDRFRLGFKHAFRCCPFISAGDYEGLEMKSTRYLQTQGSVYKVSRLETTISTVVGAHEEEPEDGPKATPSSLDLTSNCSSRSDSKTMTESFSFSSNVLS
PROPERTY LABEL: Ki
READOUT VALUE: 8
//
COMPOUND: NC(=O)CN1CCN([C@H](COCc2cc(C(F)(F)F)cc(C(F)(F)F)c2)c2ccccc2)CC1
TARGET OF ASSAY: Substance-P receptor (Homo sapiens)
PROPERTY LABEL: Ki
READOUT VALUE: 7.94
//
COMPOUND: CC(=O)N1CCN(C(=O)N2C[C@H](c3ccc(F)cc3)[C@@H](N(C)C(=O)C(C)(C)c3cc(C(F)(F)F)cc(C(F)(F)F)c3)C2)CC1 (racemic)
TARGET OF ASSAY: Substance-P receptor (Homo sapiens)
PROPERTY LABEL: Ki
READOUT VALUE: 1.4
//
COMPOUND: CO/N=C(\COCc1cc(C(F)(F)F)cc(C(F)(F)F)c1)C(CCN1CCN(C)CC1)c1ccc(Cl)c(Cl)c1 (stereo unspecified)
TARGET OF ASSAY: Substance-P receptor (Homo sapiens)
PROPERTY LABEL: Ki
READOUT VALUE: 61
//
COMPOUND: COc1ccc(-n2nnnc2NC(C)=O)cc1CN[C@H]1CCCN[C@H]1c1ccccc1
TARGET OF ASSAY: Substance-P receptor (Homo sapiens)
PROPERTY LABEL: Ki
READOUT VALUE: 0.251

Query string: Requested read-out Ki, target or system Substance-P receptor (Homo sapiens), entry Fc1cc(COCC(c2ccccc2)N2CCNCC2)cc(C(F)(F)F)c1 (stereo unspecified)
Result string: 12.6

Query string: Requested read-out Ki, target or system Substance-P receptor (Homo sapiens), entry CN(Cc1ccccc1)C(=O)[C@H](Cc1ccc(-c2ccccc2)cc1)NC(=O)[C@@H]1CCCN1/C(S)=N/Cc1ccccc1Cl
Result string: 7.2

Query string: Requested read-out Ki, target or system Substance-P receptor (Homo sapiens), entry CN1C(=O)OC2(CCN(CC[C@@H](C(=O)N(C)[C@@H](Cc3ccccc3)C(=O)NCCN)c3ccc(Cl)c(Cl)c3)CC2)c2cc(F)ccc21 (mixture of isomers)
Result string: 126

Query string: Requested read-out Ki, target or system Substance-P receptor (Homo sapiens), entry CCOCCCNC(=O)CN1CCN(CCC(/C(COCc2cc(C(F)(F)F)cc(C(F)(F)F)c2)=N/OC)c2ccc(Cl)c(Cl)c2)CC1 (stereo unspecified)
Result string: 39

Query string: Requested read-out Ki, target or system Substance-P receptor (Homo sapiens), entry O=C(O)CCCCN1CCN(C(COCc2cc(C(F)(F)F)cc(C(F)(F)F)c2)c2ccccc2)CC1 (stereo unspecified)
Result string: 10

Query string: Requested read-out Ki, target or system Substance-P receptor (Homo sapiens), entry CN(C(=O)c1cc(C(F)(F)F)cc(C(F)(F)F)c1)[C@@H](/C=C/C(=O)N[C@H]1CCCCNC1=O)Cc1ccc(Cl)c(Cl)c1
Result string: 8.71

Query string: Requested read-out Ki, target or system Substance-P receptor (Homo sapiens), entry Cc1ccccc1-c1cccnc1N(C)C(=O)C(C)(C)c1cc(C(F)(F)F)cc(C(F)(F)F)c1
Result string: 4

Query string: Requested read-out Ki, target or system Substance-P receptor (Homo sapiens), entry Cc1cc(F)ccc1[C@H]1C[C@@H](NC2CC2)CCN1C(=O)N(C)[C@H](C)c1cc(C(F)(F)F)cc(C(F)(F)F)c1
Result string: 0.324

Query string: Requested read-out Ki, target or system Substance-P receptor (Homo sapiens), entry CN(Cc1ccccc1)C(=O)[C@H](Cc1ccc2ccccc2c1)NC(=O)[C@@H]1CCCN1C(=O)NCc1ccccc1Cl
Result string: 2.3

Query string: Requested read-out Ki, target or system Substance-P receptor (Homo sapiens), entry CO/N=C(\COCc1cc(C(F)(F)F)cc(C(F)(F)F)c1)C(CCN1CCC(CN2CCCCC2CO)CC1)c1ccc(Cl)c(Cl)c1 (stereo unspecified)
Result string: 20

---

We begin with Ki values for Substance-P receptor (Homo sapiens, UniProt P25103), as collected from the published literature.
Output y for records whose Ki is lower than 100 nM, n for records at or above 100 nM.

MOLECULE: CC(=O)N1Cc2[nH]c3ccccc3c2C[C@H]1C(=O)OCc1cc(C(F)(F)F)cc(C(F)(F)F)c1
GROUP LABEL: n

MOLECULE: CC[C@@H](NC(=O)c1cc(-c2ccccc2)nc2ccccc12)c1ccccc1
GROUP LABEL: n

MOLECULE: O=C(c1cc(C(F)(F)F)cc(C(F)(F)F)c1)N1CCC2(CC1)NC(=O)N(Cc1cccc(-c3ccccc3)c1)C2=O
GROUP LABEL: n

MOLECULE: Cc1cc(F)ccc1[C@H]1C[C@H](N2CCC2)CCN1C(=O)N(C)[C@H](C)c1cc(C(F)(F)F)cc(C(F)(F)F)c1
GROUP LABEL: y

MOLECULE: COc1ccc(CC2NC(=O)CNC(=O)[C@H](C(C)C)NC(=O)CNC(=O)[C@@H]3CCCN3C(=O)[C@@H](Cc3c[nH]c4ccccc34)NC(=O)CNC2=O)cc1 (some centres not stated)
GROUP LABEL: n

MOLECULE: CCOC(=O)C1CCN(C(=O)CN2CCN(CCC(/C(COCc3cc(C(F)(F)F)cc(C(F)(F)F)c3)=N/OC)c3ccc(Cl)c(Cl)c3)CC2)CC1 (configuration not stated)
GROUP LABEL: y

For the next question, use this molecule.
Query string: Does the reported Ki of CN1C(=O)OC2(CCN(CC[C@](C)(C(=O)N[C@H](Cc3ccccc3)C(=O)NCCN)c3ccc(Cl)c(Cl)c3)CC2)c2cc(F)ccc21 stay below 100 nM?
Result string: n
